Measured values drawn from patent US9944596B2 for this set.

biological target: RBP4 (Mus musculus, UniProt Q00724); construct: from tissue; host or cells: plasma of male C57BL/6J mice (Japan Charles River); assay: Blood RBP4-lowering action in C57BL/6J mouse (plasma RBP4 by ELISA); type: in vivo; settings: male C57BL/6J mice, oral 5 mg/kg, plasma 8 hr after administration; mean±SD, n=4 or 5
parameter-measured: RBP4 (initial value/control value %) 8 hr later

O=C(O)CC(=O)N1CC[C@H](COc2ccccc2C2(C(F)(F)F)CC2)C1 | 30.02
O=C(O)CC(=O)N1CCC(COc2ccccc2C2CCCC2)C1 (centres unmarked) | 33.90
O=C(O)CC(=O)N1CC[C@H](COc2ccccc2C2CCCC2)C1 | 29.93
O=C(O)CC(=O)N1CC[C@H](COc2ccccc2C2CCCCC2)C1 | 32.30
O=C(O)CC(=O)N1CC[C@@H](COc2ccccc2C2CCCC2)C1 | 41.42
